Test system: Proteus mirabilis
assayProtocol: MIC against Gram-negative bacteria: Proteus mirabilis
Type: cell-based
particulars: P. mirabilis; 10 h cultivation at 37° C.; 5×10^5 CFU/mL
# Lookup of reported MIC (μg/mL) P. mirabilis keyed by entry
observable: MIC (μg/mL) P. mirabilis (µg/mL)

>>> df
                                   substance                observable  obsvalue
 0  PRT792 (YGVLCAETCQCVNGGKCYHVSGACLCEAGFAGERCE; listed as Homo sapiens)  MIC (μg/mL) P. mirabilis        50
 1  PRT255 (DVDECVGLQPVCPQGTTCINTGGSFQCVSPECPEG; listed as Homo sapiens)  MIC (μg/mL) P. mirabilis       100
 2  PRT149 (LSNICLSHPCLNGQCIDTVSGYFCKCDSGWTGVNCT; listed as Homo sapiens)  MIC (μg/mL) P. mirabilis      12.5
 3  PRT789 (YGNDCHQRCQCQNGATCDHVTGECRCPPGYTGAFCE; listed as Homo sapiens)  MIC (μg/mL) P. mirabilis        50
 4  PRT821 (DVDECRTHNGGCQHRCVNTPGSYLCECKPGFRLHTDSRTCL; listed as Homo sapiens)  MIC (μg/mL) P. mirabilis        50
 5  PRT159 (EYDACQRKPCQNNASCIDANEKQDGSNFTCVCLPGYTGELCQ; listed as Homo sapiens)  MIC (μg/mL) P. mirabilis        25
 6  PRT889 (DVNECVSNPCQNDATCLDQIGEFQCICMPGYEGVHCE; listed as Homo sapiens)  MIC (μg/mL) P. mirabilis        25
 7  PRT752 (TAHMCSTLEHNCAHFCINIPGSYVCRCKQGYILNSDQTTCR; listed as Homo sapiens)  MIC (μg/mL) P. mirabilis        50
 8  PRT774 (LTLRCDYYGCNQTADDCLNGLACDCKSDLQRPNPQSPFCV; listed as Homo sapiens)  MIC (μg/mL) P. mirabilis      12.5
 9  PRT190 (ECPLNYCRNGGTCVVEKNGPMCRCRQGWKGNRC; listed as Homo sapiens)  MIC (μg/mL) P. mirabilis      12.5
10  PRT232 (DIDECRQDPSTCGPNSICTNALGSYSCGCIAGFHPNPEGSQKDGNFSCQ; listed as Homo sapiens)  MIC (μg/mL) P. mirabilis        25
11  PRT205 (SAHVCSQQCSGHGVCDSRNKCHCSPGYKPPNCQ; listed as Homo sapiens)  MIC (μg/mL) P. mirabilis      12.5
12  PRT825 (FGPNCTHVCGCGQGAACDPVTGTCLCPPGRAGVRCE; listed as Homo sapiens)  MIC (μg/mL) P. mirabilis      12.5
13  PRT823 (FGEACAQRCSCPPGAACHHVTGACRCPPGFTGSGCE; listed as Homo sapiens)  MIC (μg/mL) P. mirabilis        25
14  PRT855 (DVDECATGRASCPRFRQCVNTFGSYICKCHKGFDLMYIGGKYQCH; listed as Homo sapiens)  MIC (μg/mL) P. mirabilis      12.5
15  PRT768 (AIDYCSFGNHSCQHECVSTPGGPRCHCREGHDLQPDGRSCQ; listed as Homo sapiens)  MIC (μg/mL) P. mirabilis      12.5
16  PRT194 (CRSKCHGHGVCDSNRHCYCEEGWAPPDCT; listed as Homo sapiens)  MIC (μg/mL) P. mirabilis       100
17  PRT219 (DIDECRTSSYLCQYQCVNEPGKFSCMCPQGYQVVRSRTCQ; listed as Homo sapiens)  MIC (μg/mL) P. mirabilis      12.5
18  PRT256 (CHLHARCVSQEGVARCRCLDGFEGDGFSC; listed as Homo sapiens)  MIC (μg/mL) P. mirabilis        25
19  PRT808 (YGPNCSSICSCNNGGTCSPVDGSCTCKEGWQGLDCT; listed as Homo sapiens)  MIC (μg/mL) P. mirabilis        25
20  PRT166 (NGSPCQHGGTCVDDEGRASHASCLCPPGFSGNFCE; listed as Homo sapiens)  MIC (μg/mL) P. mirabilis      12.5
21  PRT795 (WGFGCNLTCQCLNGGACNTLDGTCTCAPGWRGEKCE; listed as Homo sapiens)  MIC (μg/mL) P. mirabilis        25
22  PRT854 (TCSMANCQYGCDVVKGQIRCQCPSPGLQLAPDGRTCV; listed as Homo sapiens)  MIC (μg/mL) P. mirabilis      12.5
23  PRT146 (DRDECSFQPGPCSTLVQCFNTQGSFYCGACPTGWQGNGYICE; listed as Homo sapiens)  MIC (μg/mL) P. mirabilis        25
24  PRT881 (AEGPCGERPCENGGICFLLDGHPTCDCSTTGYGGKLCS; listed as Homo sapiens)  MIC (μg/mL) P. mirabilis      12.5
25  PRT182 (QQPICLSGCHEQNGYCSKPAECLCRPGWQGRLCN; listed as Homo sapiens)  MIC (μg/mL) P. mirabilis        25
26  PRT775 (SSLKCPDACNAQHKQCLIKKSGGAPECACVPGYQEDANGNCQ; listed as Homo sapiens)  MIC (μg/mL) P. mirabilis        50
27  PRT831 (DGRHCVRRSPCANRNGSCMHRCQVVRGLARCECHVGYQLAADGKACE; listed as Homo sapiens)  MIC (μg/mL) P. mirabilis        50
28  PRT799 (FHACSCHNGASCSAEDGACHCTPGWTGLFCT; listed as Homo sapiens)  MIC (μg/mL) P. mirabilis      12.5
29  PRT766 (GKDQCAEGGHGCQHQCVNAWAMFHCTCNPGYKLAADNKSCL; listed as Homo sapiens)  MIC (μg/mL) P. mirabilis        50
30  PRT221 (YTECTDGYEWDPDSQHCRDVNECLTIPEACKGEMKCINHYGGYLCL; listed as Homo sapiens)  MIC (μg/mL) P. mirabilis        25
31  PRT227 (KGNNCRDSTLCPAYATCTNTVDSYYCACKQGFLSSNGQNHFKDPGVRCK; listed as Homo sapiens)  MIC (μg/mL) P. mirabilis      12.5
32  PRT242 (CEPGCKFGECVGPNKCRCFPGYTGKTC; listed as Homo sapiens)  MIC (μg/mL) P. mirabilis      12.5
33  PRT168 (CLPGCDEQHGFCDKPGECKCRVGWQGRYC; listed as Homo sapiens)  MIC (μg/mL) P. mirabilis      12.5
